test: Efflux of [3H]-AZT and its metabolites; assay type: in vitro ADME, human; settings: human, t½ for intracellular AZT, CEM-SS
measure.name: half-life at 10 μM (min)
Give bare numbers, in min.

# input molecule: `Cc1cn([C@H]2C[C@H](N=[N+]=[N-])[C@@H](CO)O2)c(=O)[nH]c1=O` ; wanted: its half-life at 10 μM
8.1

* * *

experiment: Cytotoxicity assay (growth inhibition, Coulter counter); conditions: human, CEM-SS cells (wild type, parental)
Task for the reader: assign each of the following compounds its reported IC50 at 48 h.
Give bare numbers, in µM.

• Cc1cn([C@H]2C[C@H](N=[N+]=[N-])[C@@H](CO)O2)c(=O)[nH]c1=O = 500

Then this compound:
Dear colleague, I am looking for the recorded IC50 at 48 h of the following compound: `Nc1ccn([C@@H]2CS[C@H](CO)O2)c(=O)n1`
1000

* * *

assay: Efflux of [3H]-AZT and its metabolites; format: in vitro ADME, human; settings: human, t½ for intracellular AZT, CEM-r1
measure.name: half-life at 10 μM (min)
Answers are plain numbers, in min.

Please give the measured half-life at 10 μM for this compound: `Cc1cn([C@H]2C[C@H](N=[N+]=[N-])[C@@H](CO)O2)c(=O)[nH]c1=O`
6.5

* * *

system: HIV-1IIIB in CEM-SS cells; assay: Antiviral activity (ED50, RT / p24 assay) in wild type cells; format: cell-based; conditions: Human immunodeficiency virus 1, WT (CEM-SS) cells
Kindly state pEC50 for each of the entries shown.
Give bare numbers, as −log10 of the molar value.

- Nc1ccn([C@@H]2CS[C@H](CO)O2)c(=O)n1: 6.68

Pending compound:
Checklist item: pEC50 tested on HIV-1IIIB in CEM-SS cells, entry `Cc1cn([C@H]2C[C@H](N=[N+]=[N-])[C@@H](CO)O2)c(=O)[nH]c1=O` , value?
8.22

* * *

assay: Efflux of [3H]-AZT and its metabolites; assay type: in vitro ADME, human; conditions: human, CEMr-1, no treatment, after loading with [3H]-AZT; read-out: Efflux kinetics, AZTMP t½
measure.name: half-life at 10 μM
Write the numeric value and append its unit.

Consider the compound Cc1cn([C@H]2C[C@H](N=[N+]=[N-])[C@@H](COP(=O)(O)O)O2)c(=O)[nH]c1=O [AZTMP, azido-thymidine monophosphate] and give its measured half-life at 10 μM.
4.5 min

* * *

system: CEM-r1 cells; assay: Cytotoxicity assay (growth inhibition, Coulter counter); conditions: read-out: Cytotoxicity IC50; CEM-r1 cells (Table 5)
measure.name: IC50 (mM)
Give bare numbers, in mM.

- Nc1nc2c(ncn2CCOCP(=O)(O)O)c(=O)[nH]1: 0.2

Attention now shifts to the item below.
For `Nc1ncnc2c1ncn2CCOCP(=O)(O)O` , what is its reported IC50?
20

* * *

Test: Efflux of [3H]-AZT and its metabolites
Assay type: in vitro ADME, human
Conditions: human, CEMr-1, Azide + Deoxyglucose; read-out: Efflux kinetics, AZTMP t½
Description: Cells were incubated for 60 minutes with [^3H]-AZT (10 μM) after which they were washed free of radioactivity, resuspended in drug-free medium and the intracellular and the extracellular concentration of [^3H]-AZT were measured. […] Referring to Table 6 in greater detail, efflux kinetics were studied. […] The cells were then washed free of radioactivity and then incubated in drug-free medium in the presence of sodium azide and 2-deoxy-D-glucose. […]
measure.name: half-life at 10 μM (min)
One number for each entry, in min.

Bench note: what half-life at 10 μM did Cc1cn([C@H]2C[C@H](N=[N+]=[N-])[C@@H](COP(=O)(O)O)O2)c(=O)[nH]c1=O [AZTMP, azido-thymidine monophosphate] show?
18.1
